Cited source for all entries: ChEMBL document CHEMBL4330115

- procedure summary: Half life in rat liver microsomes at 1 uM after 60 mins by LC-MS analysis
- Type: ADME, Microsome
# key: entry, value: half-life at 1 µM

| structure smiles string | half-life at 1 µM |
| --- | --- |
| Cc1cc2c(NS(C)(=O)=O)cccc2n1-c1nc2c(c(NCc3ccccc3)n1)COCC2 | 16.8 min |
| Cc1cc2c(C(N)=O)cccc2n1-c1nc2c(c(NCc3ccccc3)n1)COCC2 | 17 min |

###

- procedure summary: Intrinsic clearance in dog liver microsomes at 1 uM after 60 mins by LC-MS analysis
- Format: ADME, Canis lupus familiaris, Microsome
- experimental parameters: 1 h
Catalogue of CLint readings, one per entry.
property name: CLint (mL/min/kg)

| compound | property name | observed result |
| --- | --- | --- |
| Cc1cc2c(C(N)=O)cccc2n1-c1nc2c(c(NCc3ccccc3)n1)COCC2 [CB-5083] | CLint | 54.7 |
| Cc1cc2c(NS(C)(=O)=O)cccc2n1-c1nc2c(c(NCc3ccccc3)n1)COCC2 | CLint | 55 |

###

- procedure summary: Tmax in Sprague-Dawley rat at 30 mg/kg, ig administered as single dose by LC-MS/MS analysis
- Type: ADME, organism-based
- experimental parameters: in vivo, po

| structure smiles string | Tmax [h] |
| --- | --- |
| Cc1cc2c(NS(C)(=O)=O)cccc2n1-c1nc2c(c(NCc3ccccc3)n1)COCC2 | 2.67 |

###

- procedure summary: Intrinsic clearance in human liver microsomes at 1 uM after 60 mins by LC-MS analysis
- Assay type: ADME, Microsome
- experimental parameters: 1 h
In this section, each of the compounds is paired with its reported CLint.
property name: CLint (mL/min/kg)

| structure smiles string | observed result |
| --- | --- |
| Cc1cc2c(C(N)=O)cccc2n1-c1nc2c(c(NCc3ccccc3)n1)COCC2 | 48.4 |
| Cc1cc2c(NS(C)(=O)=O)cccc2n1-c1nc2c(c(NCc3ccccc3)n1)COCC2 | 29.5 |

###

- procedure summary: Intrinsic clearance in rat liver microsomes at 1 uM after 60 mins by LC-MS analysis
- Format: ADME, Microsome
- experimental parameters: 1 h
property name: CLint (mL/min/kg)

| structure smiles string | property name | observed result |
| --- | --- | --- |
| Cc1cc2c(C(N)=O)cccc2n1-c1nc2c(c(NCc3ccccc3)n1)COCC2 | CLint | 146 |
| Cc1cc2c(NS(C)(=O)=O)cccc2n1-c1nc2c(c(NCc3ccccc3)n1)COCC2 | CLint | 149 |

###

- experimental system: Transitional endoplasmic reticulum ATPase (Homo sapiens, UniProt P55072)
- Sequence (P55072 whole entry): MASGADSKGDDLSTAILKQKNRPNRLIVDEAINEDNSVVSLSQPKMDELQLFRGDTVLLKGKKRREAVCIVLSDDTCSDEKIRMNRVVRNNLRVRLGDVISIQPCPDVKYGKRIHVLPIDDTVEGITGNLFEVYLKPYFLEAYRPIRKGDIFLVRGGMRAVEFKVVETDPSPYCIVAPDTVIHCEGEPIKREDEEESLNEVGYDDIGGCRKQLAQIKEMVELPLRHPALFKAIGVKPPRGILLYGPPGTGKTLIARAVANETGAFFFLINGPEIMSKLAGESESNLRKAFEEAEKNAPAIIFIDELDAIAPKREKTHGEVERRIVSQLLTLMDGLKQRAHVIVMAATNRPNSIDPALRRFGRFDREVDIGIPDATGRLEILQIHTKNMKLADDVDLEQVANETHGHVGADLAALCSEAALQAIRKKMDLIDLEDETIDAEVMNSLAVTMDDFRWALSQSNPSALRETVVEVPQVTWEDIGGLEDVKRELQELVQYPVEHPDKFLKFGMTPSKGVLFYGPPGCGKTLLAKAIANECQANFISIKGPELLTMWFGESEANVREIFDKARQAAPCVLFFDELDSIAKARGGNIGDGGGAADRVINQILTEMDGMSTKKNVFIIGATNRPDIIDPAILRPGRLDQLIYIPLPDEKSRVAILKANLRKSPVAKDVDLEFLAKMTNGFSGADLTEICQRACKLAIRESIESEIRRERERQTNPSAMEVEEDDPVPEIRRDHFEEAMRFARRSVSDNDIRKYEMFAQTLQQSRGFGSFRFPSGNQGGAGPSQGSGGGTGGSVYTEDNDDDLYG
- procedure summary: Inhibition of human p97 using ATP as substrate after 60 mins by ADP-Glo assay
- experimental parameters: read-out: IC50
pIC50: −log10 of the molar value.

| structure smiles string | pIC50 |
| --- | --- |
| Cc1cc2c(NS(C)(=O)=O)cccc2n1-c1nc2c(c(NCc3ccccc3)n1)COCC2 | 7.44 |
| C=CC(=O)Nc1cccc2c1cc(C)n2-c1nc2c(c(NCc3ccccc3)n1)COCC2 | 7.23 |
| Cc1cc2c(C(N)=O)cccc2n1-c1nc2c(c(NCc3ccccc3)n1)CCCCC2 | 7.08 |
| Cc1cc2c(NC(=O)CCl)cccc2n1-c1nc2c(c(NCc3ccccc3)n1)COCC2 | 6.51 |
| Cc1cc2c(C(N)=S)cccc2n1-c1nc2c(c(NCc3ccccc3)n1)COCC2 | 6.72 |
| Cc1cc2c(NC(=O)/C=C/CN(C)C)cccc2n1-c1nc2c(c(NCc3ccccc3)n1)COCC2 | 6.41 |
| Cc1cc2c(NS(=O)(=O)C(F)(F)F)cccc2n1-c1nc2c(c(NCc3ccccc3)n1)COCC2 | 7.00 |
| Cc1cc2c(NS(=O)(=O)C3CC3)cccc2n1-c1nc2c(c(NCc3ccccc3)n1)COCC2 | 7.46 |
| Cc1cc2c(NC(=O)CN3CCCC3)cccc2n1-c1nc2c(c(NCc3ccccc3)n1)COCC2 | 6.35 |

###

- procedure summary: Cmax in Sprague-Dawley rat at 5 mg/kg, iv administered as single dose by LC-MS/MS analysis
- Assay type: ADME, organism-based
- Parameters: dose 5 mg/kg, route intravenous
- experimental parameters: in vivo

| structure smiles string | Cmax |
| --- | --- |
| Cc1cc2c(NS(C)(=O)=O)cccc2n1-c1nc2c(c(NCc3ccccc3)n1)COCC2 | 3.38 µg/mL |

###

- procedure summary: AUC (0 to infinity) in Sprague-Dawley rat at 30 mg/kg, ig administered as single dose by LC-MS/MS analysis
- Assay type: ADME, organism-based
- Set-up: dose 30 mg/kg, route intragastric, time infinity
- experimental parameters: in vivo, po

| structure smiles string | AUC(0-inf), ng·h/mL |
| --- | --- |
| Cc1cc2c(NS(C)(=O)=O)cccc2n1-c1nc2c(c(NCc3ccccc3)n1)COCC2 | 2560 |

###

- procedure summary: AUC (0 to infinity) in Sprague-Dawley rat at 5 mg/kg, iv administered as single dose by LC-MS/MS analysis
- Type: ADME, organism-based
- Parameters: dose 5 mg/kg, route intravenous, time infinity
- experimental parameters: in vivo

| structure smiles string | AUC(0-inf) [ng·h/mL] |
| --- | --- |
| Cc1cc2c(NS(C)(=O)=O)cccc2n1-c1nc2c(c(NCc3ccccc3)n1)COCC2 | 7420 |

###

- procedure summary: Half life in monkey liver microsomes at 1 uM after 60 mins by LC-MS analysis
- Assay type: ADME, Macaca mulatta, Microsome
- experimental parameters: rhesus monkey
half-life at 1 µM overview
property name: half-life at 1 µM

| molecule | observed result |
| --- | --- |
| Cc1cc2c(C(N)=O)cccc2n1-c1nc2c(c(NCc3ccccc3)n1)COCC2 [CB-5083] | 14.7 min |
| Cc1cc2c(NS(C)(=O)=O)cccc2n1-c1nc2c(c(NCc3ccccc3)n1)COCC2 | 12.3 min |

###

- procedure summary: Cmax in Sprague-Dawley rat at 30 mg/kg, ig administered as single dose by LC-MS/MS analysis
- Type: ADME, organism-based
- Set-up: dose 30 mg/kg, route intragastric
- experimental parameters: in vivo, po

| structure smiles string | Cmax |
| --- | --- |
| Cc1cc2c(NS(C)(=O)=O)cccc2n1-c1nc2c(c(NCc3ccccc3)n1)COCC2 | 0.191 µg/mL |

###

- procedure summary: Half life in Sprague-Dawley rat at 5 mg/kg, iv administered as single dose by LC-MS/MS analysis
- Format: ADME, organism-based
- experimental parameters: in vivo

| structure smiles string | half-life / min |
| --- | --- |
| Cc1cc2c(NS(C)(=O)=O)cccc2n1-c1nc2c(c(NCc3ccccc3)n1)COCC2 | 218 |

###

- procedure summary: Half life in mouse liver microsomes at 1 uM after 60 mins by LC-MS analysis
- Type: ADME, Microsome
The compounds listed here are annotated with their half-life at 1 µM.

| compound | reading unit | half-life at 1 µM |
| --- | --- | --- |
| Cc1cc2c(NS(C)(=O)=O)cccc2n1-c1nc2c(c(NCc3ccccc3)n1)COCC2 | h | 0.797 |
| Cc1cc2c(C(N)=O)cccc2n1-c1nc2c(c(NCc3ccccc3)n1)COCC2 [CB-5083] | h | 2.36 |
